system: Escherichia coli; assay: Antibacterial activity against Escherichia coli DH5-alpha by agar dilution technique; format: functional; conditions: DH5alpha

| molecule | value_comparator | MIC [µg/mL] |
| --- | --- | --- |
| CC(C)(O/N=C(\C(=O)N[C@@H]1C(=O)N2C(C(=O)[O-])=C(C[n+]3ccccc3)CS[C@H]12)c1csc(N)n1)C(=O)O [CEFTAZIDIME] | ≤ | 0.12 |
| CCN1CCN(C(=O)N[C@@H](C(=O)N[C@@H]2C(=O)N3[C@@H]2SC(C)(C)[C@@H]3C(=O)O)c2ccccc2)C(=O)C1=O [PIPERACILLIN] | = | 2 |
| CC1(C)S[C@@H]2[C@H](NC(=O)[C@H](N)c3ccc(O)cc3)C(=O)N2[C@H]1C(=O)O [AMOXICILLIN] | = | 4 |
| CO/N=C(\C(=O)N[C@@H]1C(=O)N2C(C(=O)O)=C(COC(C)=O)CS[C@H]12)c1csc(N)n1 [CEFOTAXIME] | ≤ | 0.12 |
| CO/N=C(\C(=O)N[C@@H]1C(=O)N2C(C(=O)[O-])=C(C[N+]3(C)CCCC3)CS[C@H]12)c1csc(N)n1 | ≤ | 0.12 |
